# System: HCT-116
# method.summary: Antiproliferative activity against human HCT116 cells assessed as reduction in cell viability incubated for 72 hrs by MTT assay
# Assay type: functional, cell-based
# run.parameters: HCT-116, 72 h
Below, each of the compounds is paired with its reported IC50 value.

[
  {
    "smiles.repr": "COc1ccc(-c2[nH]nc3c2-c2cc(OC)c(OC)c(OC)c2CC3)cc1NC(=O)[C@@H](N)CO.Cl",
    "tested.system": "HCT-116",
    "IC50 (nM)": 1940
  },
  {
    "smiles.repr": "COc1ccc(-c2[nH]nc3c2-c2cc(OC)c(OC)c(OC)c2CC3)cc1N",
    "tested.system": "HCT-116",
    "IC50 (nM)": 1
  },
  {
    "smiles.repr": "COc1ccc(/C=C\\c2cc(OC)c(OC)c(OC)c2)cc1O",
    "tested.system": "HCT-116",
    "IC50 (nM)": 1
  }
]

---

# method.summary: Solubility of compound in normal saline
# Format: physicochemical

[
  {
    "smiles.repr": "COc1ccc(-c2[nH]nc3c2-c2cc(OC)c(OC)c(OC)c2CC3)cc1N",
    "output.unit": "µg/mL",
    "solubility": 1000
  }
]

---

# tested.system: Tubulin (Bos taurus, UniProt Q6B856+Q862L2+Q862F3)
# method.summary: Inhibition of bovine brain tubulin polymerization measured every 1 min for 60 mins by turbidimetric assay

[
  {
    "smiles.repr": "COc1ccc(/C=C2\\c3cc(OC)c(OC)c(OC)c3CC[C@H]2O)cc1",
    "tested.system": "Tubulin (Bos taurus, UniProt Q6B856+Q862L2+Q862F3)",
    "IC50": "> 10 µM"
  },
  {
    "smiles.repr": "COc1ccc(-c2[nH]nc3c2-c2cc(OC)c(OC)c(OC)c2CC3)cc1F",
    "tested.system": "Tubulin (Bos taurus, UniProt Q6B856+Q862L2+Q862F3)",
    "IC50": "9.2 µM"
  },
  {
    "smiles.repr": "COc1ccc(-c2[nH]nc3c2-c2cc(OC)c(OC)c(OC)c2CC3)cc1NC(=O)[C@@H](N)CO.Cl",
    "tested.system": "Tubulin (Bos taurus, UniProt Q6B856+Q862L2+Q862F3)",
    "IC50": "> 10 µM"
  },
  {
    "smiles.repr": "COc1ccc(-c2c3c(nn2C)CCc2c-3cc(OC)c(OC)c2OC)cc1F",
    "tested.system": "Tubulin (Bos taurus, UniProt Q6B856+Q862L2+Q862F3)",
    "IC50": "> 10 µM"
  },
  {
    "smiles.repr": "COc1ccc(-c2c3c(nn2CCO)CCc2c-3cc(OC)c(OC)c2OC)cc1F",
    "tested.system": "Tubulin (Bos taurus, UniProt Q6B856+Q862L2+Q862F3)",
    "IC50": "> 10 µM"
  }
]

---

# tested.system: Tubulin (Bos taurus, UniProt Q6B856+Q862L2+Q862F3)
# method.summary: Inhibition of bovine brain tubulin polymerization measured every 1 min for 60 mins by turbidimetric assay
measurement.label: IC50

[
  {
    "smiles.repr": "COc1ccc(-c2c3c(nn2-c2ccccc2)CCc2c-3cc(OC)c(OC)c2OC)cc1F",
    "measurement.label": "IC50",
    "readout.value": "> 10 µM"
  },
  {
    "smiles.repr": "COc1ccc(/C=C2\\c3cc(OC)c(OC)c(OC)c3CC[C@@H]2O)cc1",
    "measurement.label": "IC50",
    "readout.value": "> 10 µM"
  },
  {
    "smiles.repr": "COc1ccc(-c2[nH]nc3c2-c2cc(OC)c(OC)c(OC)c2CC3)cc1N",
    "measurement.label": "IC50",
    "readout.value": "1.6 µM"
  },
  {
    "smiles.repr": "COc1ccc(-c2[nH]nc3c2-c2cc(OC)c(OC)c(OC)c2CC3)cc1[N+](=O)[O-]",
    "measurement.label": "IC50",
    "readout.value": "> 10 µM"
  },
  {
    "smiles.repr": "COc1ccc(-c2c3c(nn2C)CCc2c-3cc(OC)c(OC)c2OC)cc1",
    "measurement.label": "IC50",
    "readout.value": "> 10 µM"
  }
]
